Just for reference, BindingDB's records for doi:10.1021/jm800588x is where these values come from.

Biological target: Polyunsaturated fatty acid 5-lipoxygenase (Homo sapiens)
Sequence (P09917 whole entry): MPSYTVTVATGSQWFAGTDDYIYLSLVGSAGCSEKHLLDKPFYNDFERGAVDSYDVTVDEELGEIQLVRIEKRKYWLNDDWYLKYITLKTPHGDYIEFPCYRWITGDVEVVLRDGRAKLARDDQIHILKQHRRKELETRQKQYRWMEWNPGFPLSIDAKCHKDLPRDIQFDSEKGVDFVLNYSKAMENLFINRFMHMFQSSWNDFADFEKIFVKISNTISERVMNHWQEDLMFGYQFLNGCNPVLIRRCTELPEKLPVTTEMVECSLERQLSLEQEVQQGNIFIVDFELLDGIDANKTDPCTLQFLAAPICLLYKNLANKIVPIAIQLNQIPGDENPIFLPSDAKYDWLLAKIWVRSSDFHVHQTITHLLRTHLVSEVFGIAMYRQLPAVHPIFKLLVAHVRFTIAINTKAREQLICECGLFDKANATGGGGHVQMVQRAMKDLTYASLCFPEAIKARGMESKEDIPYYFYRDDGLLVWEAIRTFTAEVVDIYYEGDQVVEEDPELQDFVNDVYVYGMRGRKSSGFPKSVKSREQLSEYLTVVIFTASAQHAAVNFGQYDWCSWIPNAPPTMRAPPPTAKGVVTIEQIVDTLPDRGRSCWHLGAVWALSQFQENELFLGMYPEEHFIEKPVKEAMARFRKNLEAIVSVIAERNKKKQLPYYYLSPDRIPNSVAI
Assay: Determination of 5-LO Product Formation in Intact Cells (EC50/IC50)
Conditions: pH 7.4; 37 °C
pEC50: −log10 of the molar value.
Entries and their pEC50
parameter: pEC50

compound=CCOC(=O)CSc1nc(Cl)cc(Nc2ccc3ncccc3c2)n1 reported_measurement=5.59
compound="CCOC(=O)C(Sc1nc(Cl)cc(Nc2cccc(C)c2C)n1)c1ccccc1 (stereo not drawn)" reported_measurement=5.74
compound="CCCCC(Sc1nc(Cl)cc(Nc2ccc3ncccc3c2)n1)C(=O)OCC (stereo not drawn)" reported_measurement=5.96
compound="CCOC(=O)C(Sc1nc(Cl)cc(Nc2ccc3ncccc3c2)n1)c1ccccc1 (stereo not drawn)" reported_measurement=5.92
compound="CCCCCCC(Sc1nc(Cl)cc(Oc2ccc3ncccc3c2)n1)C(=O)OCC (stereo not drawn)" reported_measurement=5.77
compound="CCCCCCC(Sc1nc(Cl)cc(Nc2cccc(C)c2C)n1)C(=O)O (stereo not drawn)" reported_measurement=5.39
compound=CCOC(=O)CSc1nc(Cl)cc(Nc2cccc3c2CCC3)n1 reported_measurement=5.49
compound=O=C(O)CSc1nc(Cl)cc(Nc2cccc3c2CCC3)n1 reported_measurement=5.41
